Each entry below carries its reported Selectivity Index KB.
Tested on: KB
Assay: MTT assay, KB
Assay type: cell-based
Details: IC50 for normal cell line (HDF)/IC50 for KB
Give a plain numeric answer without units written out.

These recorded examples may help you get a feel for the data.
CC1(C)CC[C@]2(C(=O)N3CCOCC3)CC[C@]3(C)C(=CCC4[C@@]5(C)CC/C(=N\OC(=O)c6ccccc6)C(C)(C)C5CC[C@]43C)C2C1 (stereo partly drawn) [Compound 7d]: 1.44
COC(=O)[C@]12CCC(C)(C)CC1C1=CCC3[C@@]4(C)CC/C(=N\OC(=O)c5ccc([N+](=O)[O-])cc5)C(C)(C)C4CC[C@@]3(C)[C@]1(C)CC2 (stereo partly drawn) [Compound 5f]: 2.18
COC(=O)[C@]12CCC(C)(C)CC1C1=CCC3[C@@]4(C)CC/C(=N\OC(=O)c5cccc([N+](=O)[O-])c5)C(C)(C)C4CC[C@@]3(C)[C@]1(C)CC2 (stereo partly drawn) [Compound 5e]: 1.59
CC1(C)CC[C@]2(C(=O)N3CCOCC3)CC[C@]3(C)C(=CCC4[C@@]5(C)CC/C(=N\OC(=O)CCl)C(C)(C)C5CC[C@]43C)C2C1 (stereo partly drawn) [Compound 7b]: 1.97
CC1(C)CC[C@]2(C(=O)N3CCOCC3)CC[C@]3(C)C(=CCC4[C@@]5(C)CC/C(=N\OC(=O)c6cc([N+](=O)[O-])cc([N+](=O)[O-])c6)C(C)(C)C5CC[C@]43C)C2C1 (stereo partly drawn) [Compound 7g]: 1.52
COC(=O)C12CCC(C)(C)CC1C1=CC(=O)C3C4(C)CCC(=NO)C(C)(C)C4CCC3(C)C1(C)CC2 (stereo not drawn) [Compound 3]: 1.01
COC(=O)[C@]12CCC(C)(C)CC1C1=CCC3[C@@]4(C)CC/C(=N\OC(C)=O)C(C)(C)C4CC[C@@]3(C)[C@]1(C)CC2 (stereo partly drawn) [Compound 5a]: 2.55
COC(=O)[C@]12CCC(C)(C)CC1C1=CCC3[C@@]4(C)CC/C(=N\OC(=O)c5cc([N+](=O)[O-])cc([N+](=O)[O-])c5)C(C)(C)C4CC[C@@]3(C)[C@]1(C)CC2 (stereo partly drawn) [Compound 5g]: 1.35

## Input Look up Selectivity Index KB of COC(=O)[C@]12CCC(C)(C)CC1C1=CC(=O)C3[C@@]4(C)CC/C(=N\OC(=O)c5cccc([N+](=O)[O-])c5)C(C)(C)C4CC[C@@]3(C)[C@]1(C)CC2 (stereo partly drawn) [Compound 6e] and report it.
## Output 1.39

## Input Look up Selectivity Index KB of COC(=O)[C@]12CCC(C)(C)CC1C1=CC(=O)C3[C@@]4(C)CC/C(=N\OC(=O)c5ccccc5)C(C)(C)C4CC[C@@]3(C)[C@]1(C)CC2 (stereo partly drawn) [Compound 6d] and report it.
## Output 1.54

## Input Look up Selectivity Index KB of COC(=O)[C@]12CCC(C)(C)CC1C1=CC(=O)C3[C@@]4(C)CC/C(=N\OC(=O)c5ccc([N+](=O)[O-])cc5)C(C)(C)C4CC[C@@]3(C)[C@]1(C)CC2 (stereo partly drawn) [Compound 6f] and report it.
## Output 1.41

## Input Look up Selectivity Index KB of CCC(=O)O/N=C1\CC[C@@]2(C)C(CC[C@]3(C)C2CC=C2C4CC(C)(C)CC[C@]4(C(=O)OC)CC[C@]23C)C1(C)C (stereo partly drawn) [Compound 5c] and report it.
## Output 1.03

## Input Look up Selectivity Index KB of COC(=O)[C@]12CCC(C)(C)CC1C1=CC(=O)C3[C@@]4(C)CC/C(=N\OC(C)=O)C(C)(C)C4CC[C@@]3(C)[C@]1(C)CC2 (stereo partly drawn) [Compound 6a] and report it.
## Output 1.76

## Input Look up Selectivity Index KB of CC1(C)CC[C@]2(C(=O)N3CCOCC3)CC[C@]3(C)C(=CCC4[C@@]5(C)CC/C(=N\OC(=O)c6ccc([N+](=O)[O-])cc6)C(C)(C)C5CC[C@]43C)C2C1 (stereo partly drawn) [Compound 7f] and report it.
## Output 1.38

## Input Look up Selectivity Index KB of COC(=O)[C@]12CCC(C)(C)CC1C1=CCC3[C@@]4(C)CC/C(=N\OC(=O)c5ccccc5)C(C)(C)C4CC[C@@]3(C)[C@]1(C)CC2 (stereo partly drawn) [Compound 5d] and report it.
## Output 1.36

## Input Look up Selectivity Index KB of COC(=O)[C@]12CCC(C)(C)CC1C1=CC(=O)C3[C@@]4(C)CC/C(=N\OC(=O)CCl)C(C)(C)C4CC[C@@]3(C)[C@]1(C)CC2 (stereo partly drawn) [Compound 6b] and report it.
## Output 1.44

## Input Look up Selectivity Index KB of COC(=O)[C@]12CCC(C)(C)CC1C1=CCC3[C@@]4(C)CC/C(=N\OC(=O)CCl)C(C)(C)C4CC[C@@]3(C)[C@]1(C)CC2 (stereo partly drawn) [Compound 5b] and report it.
## Output 2.01

## Input Look up Selectivity Index KB of CC(=O)O/N=C1\CC[C@@]2(C)C(CC[C@]3(C)C2CC=C2C4CC(C)(C)CC[C@]4(C(=O)N4CCOCC4)CC[C@]23C)C1(C)C (stereo partly drawn) [Compound 7a] and report it.
## Output 1.42

## Input Look up Selectivity Index KB of CCC(=O)O/N=C1\CC[C@@]2(C)C(CC[C@]3(C)C2C(=O)C=C2C4CC(C)(C)CC[C@]4(C(=O)OC)CC[C@]23C)C1(C)C (stereo partly drawn) [Compound 6c] and report it.
## Output 1.97

---

Test system: KB
Experiment: MTT assay, KB
Format: cell-based
Conditions: IC50 for normal cell line (HDF)/IC50 for KB
Recorded endpoint: Selectivity Index KB

CC1(C)CC[C@]2(C(=O)N3CCOCC3)CC[C@]3(C)C(=CCC4[C@@]5(C)CC/C(=N\OC(=O)c6cccc([N+](=O)[O-])c6)C(C)(C)C5CC[C@]43C)C2C1 (some centres unmarked): 2.02
CCC(=O)O/N=C1\CC[C@@]2(C)C(CC[C@]3(C)C2CC=C2C4CC(C)(C)CC[C@]4(C(=O)N4CCOCC4)CC[C@]23C)C1(C)C (some centres unmarked): 1.20
COC(=O)C12CCC(C)(C)CC1C1=CCC3C4(C)CCC(=NO)C(C)(C)C4CCC3(C)C1(C)CC2 (centres unmarked) [Compound 2, methyl oleanonate oxime]: 1.70
COC(=O)[C@]12CCC(C)(C)CC1C1=CC(=O)C3[C@@]4(C)CC/C(=N\OC(=O)c5cc([N+](=O)[O-])cc([N+](=O)[O-])c5)C(C)(C)C4CC[C@@]3(C)[C@]1(C)CC2 (some centres unmarked): 0.81

We next turn to a different compound, shown below.
## Input Look up Selectivity Index KB of CC1(C)CCC2(C(=O)N3CCOCC3)CCC3(C)C(=CCC4C5(C)CCC(=NO)C(C)(C)C5CCC43C)C2C1 (centres unmarked) and report it.
## Output 1.60
